tested_target: H3 (Homo sapiens, UniProt Q9Y5N1)
Sequence (Q9Y5N1 whole entry): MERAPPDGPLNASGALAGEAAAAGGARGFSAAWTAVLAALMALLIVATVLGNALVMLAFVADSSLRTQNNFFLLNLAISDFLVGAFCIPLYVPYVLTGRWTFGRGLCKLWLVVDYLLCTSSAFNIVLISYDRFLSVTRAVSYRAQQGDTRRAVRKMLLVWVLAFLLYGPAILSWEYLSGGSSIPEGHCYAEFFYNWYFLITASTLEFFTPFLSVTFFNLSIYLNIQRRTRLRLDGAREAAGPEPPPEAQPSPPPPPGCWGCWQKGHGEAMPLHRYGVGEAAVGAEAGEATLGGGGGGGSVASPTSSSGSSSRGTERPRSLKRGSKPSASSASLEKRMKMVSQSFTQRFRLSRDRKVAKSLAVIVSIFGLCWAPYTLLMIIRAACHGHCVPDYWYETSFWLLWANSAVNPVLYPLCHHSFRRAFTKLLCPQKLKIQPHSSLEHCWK
reported_endpoint: pKi
Answers are plain numbers, as −log10 of the molar value.

Q: System H3 (Homo sapiens, UniProt Q9Y5N1). Read-out pKi. Item `CC(C)(C)OC(=O)NCCCCCCn1cc(CCCCN2CCC(c3ccc(-c4cc(C(=O)O)cc5cc(-c6ccc(C(F)(F)F)cc6)ccc45)cc3)CC2)nn1` . Report value.
Ans: 5.56

###

tested_target: 5HT2B (Homo sapiens)
Sequence (P41595 whole entry, species assumed): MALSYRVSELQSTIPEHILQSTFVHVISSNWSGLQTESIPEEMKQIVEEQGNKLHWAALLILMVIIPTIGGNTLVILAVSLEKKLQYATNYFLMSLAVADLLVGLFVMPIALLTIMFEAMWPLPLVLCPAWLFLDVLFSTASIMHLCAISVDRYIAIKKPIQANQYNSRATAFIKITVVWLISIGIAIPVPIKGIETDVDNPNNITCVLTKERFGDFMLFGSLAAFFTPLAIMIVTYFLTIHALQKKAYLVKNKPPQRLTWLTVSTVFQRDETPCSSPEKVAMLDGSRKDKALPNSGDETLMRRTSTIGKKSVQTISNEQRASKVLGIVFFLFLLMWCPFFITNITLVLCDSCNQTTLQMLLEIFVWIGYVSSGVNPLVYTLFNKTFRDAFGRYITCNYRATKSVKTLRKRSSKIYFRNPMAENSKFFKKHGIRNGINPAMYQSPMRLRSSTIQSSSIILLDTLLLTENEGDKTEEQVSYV
reported_endpoint: Ki (nM)
Answers are plain numbers, in nM.

Q: Recall and state the measured Ki for `CC(C)(C)OC(=O)NCCCCCCn1cc(CCCCN2CCC(c3ccc(-c4cc(C(=O)O)cc5cc(-c6ccc(C(F)(F)F)cc6)ccc45)cc3)CC2)nn1` .
Ans: 2780
